We begin with a simple list: items and their reported IC50.
Test system: human P-selectin (Homo sapiens)
Construct: IgG-Fc (fusion partner); purchased R&D Systems Europe Ltd., Abingdon, United Kingdom
Protocol: Competition assay with TM11-PO (competition ELISA)
Type: binding
Measurement parameters: Table 3; gallic acid derivatized peptides; mean of at least 3 experiments at 8 concentrations; read-out: IC50 for human P-selectin as determined by competition Elisa
Peptide text beside a SMILES is read from it. * marks the point of attachment. Galloyl = O=C(c1cc(O)c(O)c(O)c1)*; Trx = NC[C@H]1CC[C@H](C(=O)O)CC1; 4Amb = NCc1ccc(C(=O)O)cc1

{"Compound": "CC(C)[C@H](NC(=O)[C@H](CC(=O)O)NC(=O)[C@@H](NC(=O)[C@H](Cc1c[nH]c2ccccc12)NC(=O)CNC(=O)c1cc(O)c(O)c(O)c1)C(C)C)C(=O)O [Peptide 27] (Galloyl-GWVDV-OH)", "IC50 / nM": 18.3}
{"Compound": "CC(C)[C@H](NC(=O)[C@H](CC(=O)O)NC(=O)[C@@H](NC(=O)[C@H](Cc1c[nH]c2ccccc12)NC(=O)c1ccc(CNC(=O)c2cc(O)c(O)c(O)c2)cc1)C(C)C)C(=O)O [Peptide 32] ({Galloyl-4Amb}-WVDV-OH)", "IC50 / nM": 590}
{"Compound": "CC(C)[C@H](NC(=O)[C@H](CC(=O)O)NC(=O)[C@@H](NC(=O)[C@H](Cc1c[nH]c2ccccc12)NC(=O)[C@H]1CC[C@H](CNC(=O)c2cc(O)c(O)c(O)c2)CC1)C(C)C)C(=O)O [Peptide 33] ({Galloyl-Trx}-WVDV-OH)", "IC50 / nM": 580}
{"Compound": "CC(C)[C@H](NC(=O)[C@H](CC(=O)O)NC(=O)[C@@H](NC(=O)[C@H](Cc1c[nH]c2ccccc12)NC(=O)c1cc(O)c(O)c(O)c1)C(C)C)C(=O)O [Peptide 12, GA-WVDV] (Galloyl-WVDV-OH)", "IC50 / nM": 37.1}

###

Test system: human P-selectin (Homo sapiens, UniProt P16109)
Construct: IgG-Fc (fusion partner); purchased R&D Systems Europe Ltd., Abingdon, United Kingdom
Sequence (P16109 with tags, fused parts or gaps limits assumed): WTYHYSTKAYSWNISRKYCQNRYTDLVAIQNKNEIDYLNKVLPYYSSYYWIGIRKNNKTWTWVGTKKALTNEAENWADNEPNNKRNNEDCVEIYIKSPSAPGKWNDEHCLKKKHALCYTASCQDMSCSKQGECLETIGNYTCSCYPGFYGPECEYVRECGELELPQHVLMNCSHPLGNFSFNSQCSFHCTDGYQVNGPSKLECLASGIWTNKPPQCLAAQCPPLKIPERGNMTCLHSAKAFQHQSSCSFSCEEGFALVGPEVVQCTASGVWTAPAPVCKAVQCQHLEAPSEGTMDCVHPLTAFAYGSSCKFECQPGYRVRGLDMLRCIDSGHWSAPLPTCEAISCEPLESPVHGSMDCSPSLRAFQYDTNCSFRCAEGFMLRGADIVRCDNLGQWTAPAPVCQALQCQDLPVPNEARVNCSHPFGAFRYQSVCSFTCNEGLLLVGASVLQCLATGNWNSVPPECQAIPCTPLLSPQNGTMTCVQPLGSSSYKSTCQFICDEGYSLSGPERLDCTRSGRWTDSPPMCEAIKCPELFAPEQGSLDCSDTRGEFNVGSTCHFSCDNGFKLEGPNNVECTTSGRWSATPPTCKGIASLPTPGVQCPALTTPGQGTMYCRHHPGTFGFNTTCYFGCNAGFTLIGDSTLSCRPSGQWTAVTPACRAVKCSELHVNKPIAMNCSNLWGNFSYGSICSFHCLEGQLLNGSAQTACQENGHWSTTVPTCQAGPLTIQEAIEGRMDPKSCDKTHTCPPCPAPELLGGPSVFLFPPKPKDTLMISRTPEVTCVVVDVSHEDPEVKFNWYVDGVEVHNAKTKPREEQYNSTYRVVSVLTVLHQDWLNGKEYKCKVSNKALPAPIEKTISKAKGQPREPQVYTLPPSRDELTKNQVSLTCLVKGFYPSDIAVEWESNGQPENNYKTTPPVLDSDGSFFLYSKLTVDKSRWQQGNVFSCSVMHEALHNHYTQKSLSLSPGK
Protocol: Competition assay with TM11-PO (competition ELISA)
Assay type: binding
Measurement parameters: Table 1; derivatised peptides HPij; inhibition of TM11-PO binding to human P-selectin; read-out: IC50
pIC50: −log10 of the molar value. Numbered stars: 1 amine (or outer) side, 2 acyl side, 3 side chain; on linkers, the order of the positions; unused ones are H or OH. Square brackets hold non-standard residues; d marks the D form. Peptide text beside a SMILES is read from it. * marks the point of attachment. Trimesoyl = O=C(c1cc(C(=O)[*:2])cc(C(=O)[*:3])c1)[*:1]; Galloyl = O=C(c1cc(O)c(O)c(O)c1)*; GABA = NCCCC(=O)O
Test readout: pIC50

{"Molecule": "CC(C)[C@H](NC(=O)[C@H](CC(=O)O)NC(=O)[C@@H](NC(=O)[C@H](Cc1c[nH]c2ccccc12)NC(=O)[C@H](CCC(=O)O)NC(=O)c1cc(C(=O)O)cc(C(=O)O)c1)C(C)C)C(=O)N[C@@H](CCCCNC(=O)c1cc(O)c(O)c(O)c1)C(=O)NCCCC(=O)O [HP16] (Trimesoyl-EWVDVK(Galloyl)[GABA]-OH)", "Observed result": 6.51}
